# TARGET_UNDER_TEST: BCL-XL (Homo sapiens)
# Construct: endogenous in cells; host or cells: MOLT-4
# Sequence (Q07817 whole entry): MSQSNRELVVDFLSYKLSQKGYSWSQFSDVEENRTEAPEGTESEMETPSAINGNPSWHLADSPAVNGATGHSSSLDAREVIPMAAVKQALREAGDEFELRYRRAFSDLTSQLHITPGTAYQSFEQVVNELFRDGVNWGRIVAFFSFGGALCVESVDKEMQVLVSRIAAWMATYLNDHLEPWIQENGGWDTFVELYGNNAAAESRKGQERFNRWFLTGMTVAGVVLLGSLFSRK
# ASSAY_INFO: Bcl-xL ELISA degradation in MOLT-4 cells, 6 h
# Type: cell-based
MEASUREMENT_KIND: Dmax

MOLECULE: C#Cc1ccc([C@H](C)NC(=O)[C@@H]2C[C@@H](O)CN2C(=O)[C@@H](NC(=O)CCCCCS(=O)(=O)NC(=O)c2nc(N3CCc4cccc(C(=O)Nc5nc6cccnc6s5)c4C3)ccc2-c2cnn(CC3CCCCC3)c2C)C(C)(C)C)c(OCCO)c1
Dmax: > 75%
--
MOLECULE: Cc1ncsc1-c1ccc(CNC(=O)[C@@H]2C[C@@H](O)CN2C(=O)[C@@H](NC(=O)CCOCCOCCOCCOCCOCCOCC#Cc2ccc(OCCCc3sc(N4CCc5cccc(C(=O)Nc6nc7ccccc7s6)c5C4)nc3C(=O)O)cc2)C(C)(C)C)cc1
Dmax: > 75%
--
MOLECULE: Cc1ncsc1-c1ccc([C@H](C)NC(=O)[C@@H]2C[C@@H](O)CN2C(=O)C(c2cc(OC3CCN(CCNC(=O)c4nc(N5CCc6cccc(C(=O)Nc7nc8ccccc8s7)c6C5)ccc4-c4cnn(CC5CCCCC5)c4C)CC3)no2)C(C)C)cc1 (stereo partly shown)
Dmax: < 50%

Under BCL-XL (Homo sapiens): Dmax value of Cc1ncsc1-c1ccc([C@H](C)NC(=O)[C@@H]2C[C@@H](O)CN2C(=O)[C@@H](NC(=O)N2CCN(CC#Cc3ccc(OCCCc4sc(N5CCc6cccc(C(=O)Nc7nc8ccccc8s7)c6C5)nc4C(=O)O)c(F)c3)CC2)C(C)(C)C)cc1 ?
< 50%

Under BCL-XL (Homo sapiens): Dmax value of C#Cc1ccc([C@H](C)NC(=O)[C@@H]2C[C@@H](O)CN2C(=O)[C@@H](NC(=O)C2CCN(c3ccc(S(=O)(=O)NC(=O)c4nc(N5CCc6cccc(C(=O)Nc7nc8ccccc8s7)c6C5)ccc4-c4cnn(CC5CCCCC5)c4C)cc3)CC2)C(C)(C)C)cc1 ?
> 75%

Under BCL-XL (Homo sapiens): Dmax value of Cc1ncsc1-c1ccc([C@H](C)NC(=O)[C@@H]2C[C@@H](O)CN2C(=O)[C@@H](NC(=O)CCCCCS(=O)(=O)NC(=O)c2nc(N3CCc4cccc(C(=O)Nc5nc6ccccc6s5)c4C3)ccc2-c2cccc3c2cnn3C(C)C)C(C)(C)C)cc1 ?
50 to 75%
